Values compiled from ChEMBL document CHEMBL1201862.

Overview of recorded GI50 for various compounds
test system: HL-60; assay: NCI tumour cell line growth inhibition, 48 h
The source made the active and inactive calls. Cut-off read from the data, not from the text of the source: active = GI50 up to about 1.1 µM and inactive = higher.
RECORDED METRIC: GI50

[
  {
    "COMPOUND": "COc1ccc(C(=C(I)c2ccccc2)c2ccc(OC)cc2)cc1",
    "RECORDED METRIC": "GI50",
    "OBSERVED RESULT": "64.9 µM (inactive)"
  },
  {
    "COMPOUND": "COc1c2ccoc2c(S(=O)(=O)Nc2ccc(Cl)cc2)c2oc(C)cc(=O)c12",
    "RECORDED METRIC": "GI50",
    "OBSERVED RESULT": "23.9 µM (inactive)"
  },
  {
    "COMPOUND": "Clc1cccc(Cl)c1C1SCc2nc3ncccc3n21 (stereo not given)",
    "RECORDED METRIC": "GI50",
    "OBSERVED RESULT": "60.7 µM (inactive)"
  },
  {
    "COMPOUND": "CCOC(=O)CC1C(C(=O)OCC)=Cn2c([nH]c3cccc4cccc2c43)=C1C(=O)OCC (stereo not given)",
    "RECORDED METRIC": "GI50",
    "OBSERVED RESULT": "25.3 µM (inactive)"
  },
  {
    "COMPOUND": "COc1ccc2oc3c(ccc[n+]3C)c(=O)c2c1",
    "RECORDED METRIC": "GI50",
    "OBSERVED RESULT": "> 100 µM (inactive)"
  },
  {
    "COMPOUND": "O=C(CCc1n[nH]c(=S)o1)Nc1ccc(Cl)cc1Cl",
    "RECORDED METRIC": "GI50",
    "OBSERVED RESULT": "76.4 µM (inactive)"
  },
  {
    "COMPOUND": "N#CNC(=N)NC(=O)/C=C/C=C/c1ccc(Cl)cc1",
    "RECORDED METRIC": "GI50",
    "OBSERVED RESULT": "> 100 µM (inactive)"
  },
  {
    "COMPOUND": "CCCNC1=C2C[C@@H](C)C[C@@H](OC)[C@@H](OC(=O)CCCN)[C@H](C)/C=C(\\C)[C@@H](OC(N)=O)[C@H](OC)/C=C\\C=C(/C)C(=O)NC(=CC1=O)C2=O",
    "RECORDED METRIC": "GI50",
    "OBSERVED RESULT": "2.13 µM (inactive)"
  },
  {
    "COMPOUND": "NC1CCC(N(CC(=O)O)CC(=O)O)C(N(CC(=O)O)CC(=O)O)C1 (stereo not given)",
    "RECORDED METRIC": "GI50",
    "OBSERVED RESULT": "> 100 µM (inactive)"
  },
  {
    "COMPOUND": "CCC1(C)NC(c2cnccn2)=NN1c1ccc(Cl)cc1 (stereo not given)",
    "RECORDED METRIC": "GI50",
    "OBSERVED RESULT": "48.8 µM (inactive)"
  }
]

---

Overview of recorded GI50 for various compounds
system: OVCAR-5; assay: NCI tumour cell line growth inhibition, 48 h
Active and inactive are the calls of the source. No stated cut-off is given here; in the data, active = GI50 up to about 1.1 µM and inactive = higher.

[
  {
    "COMPOUND": "Cc1ccc2c(c1C)C(=O)C1(Cc3cc4c(cc3C1=O)CCC4)C2 (stereo unspecified)",
    "GI50": "> 100 µM (inactive)"
  },
  {
    "COMPOUND": "O=c1c2ccccc2n2nnc3ccc(NCCNCCO)c1c32",
    "GI50": "2.34 µM (inactive)"
  },
  {
    "COMPOUND": "CN(C)CCNc1ccc2nnn3c4ccc(O)cc4c(=O)c1c23",
    "GI50": "4.41 µM (inactive)"
  },
  {
    "COMPOUND": "COc1cccc2c3ccccc3c3nc[nH]c3c12",
    "GI50": "55.3 µM (inactive)"
  },
  {
    "COMPOUND": "Cc1ccccc1NC(=O)C(=O)C(c1cnc2ccc([N+](=O)[O-])cc2n1)[N+](=O)[O-] (stereo unspecified)",
    "GI50": "> 100 µM (inactive)"
  },
  {
    "COMPOUND": "O=C1C=Cc2c(I)sc(I)c21",
    "GI50": "25.1 µM (inactive)"
  }
]
